Cited source: the DeepSol protein solubility set

- assay-details: soluble on expression in E. coli; label from the status in PepcDB or PDB records
measured-quantity: soluble on expression in E. coli

- MTRRGVALVARRLPSSPGRVYAVKIDEGEDVHSVLSSLAEAEDLGFAMVTGIGGMAEATVAFYSPPEATYYTVDVKPPEGRVIEVAAMTGNIVKTSQGYSVHIHVALGVSPGKSISGHLVKGVVKPFMEVFVVELVSGQGTPGTSVFDHREGFKASYKRLEAAALEHHHHHH: not soluble
- MAKAFEEQRRSPDLEALPFEDRIGLLVDREAAERDTRRLTTRLKIAALRQTACVEDVDLRTPRGIDRAVFAKLVEGRWIDRHENLLVTGATGLGKSWLACALGHKACRDNRSVLYHRVPRLFEALALARGDGRYARLLKSLGRAQLLILDDWGLSVLTAAERRDLLEILEDRHGRASTIVTRQLPVDTWHGAIGDPTVADAILDRLVHNAHRLQLTGESMRKRSAKTITLDGQPEHAAALEHHHHHH: not soluble
- FSNAPISAEEQMIRAFVKSVEYMSPRKIGALVAIQRVRTLQEYISTGIPLDAKISAELLINIFIPNTPLHDGAVIIKEERIAVTSAYLPLTKNTGISKEFGTRHRAAIGLSEVSDALTFVVSEETGGISITYNGRFKHNL: not soluble

###

- assay-details: soluble on expression in E. coli; label from the status in PepcDB or PDB records
measured-quantity: soluble on expression in E. coli

Solved entries (count: 5):
* MQHHGVTKCNITCSKMTSKIPVALLIHYQQNQASCGKRAIILETRQHRLFCADPKEQWVKDAMQHLDRQAAALTRNG | soluble
* MGSDKIHHHHHHMLELTDDLRIGHPVIDADHQRLIEIINEFLEHSNEVNPQILHETLKSLLAYGREHFAREEGIQRQCLYPYQQGHSNEHKSLLDQVREIARAYFVAKTKPLNATSVQDVNELLKAWLIGHVKKFDTSMRDWVAPSLDMDAPRIKLASPDLAALIISPNERSRARLADLLSELGASKVLQAEDSITGLGMAFGDPVPDFIFCDLETEPLDGGAFAGALRGSNKAYITRIPLLLLHDAEDAEAIQNAMAAGASGVYPKSFNPTNLGRLLNQLLLR | not soluble
* MGSDKIHHHHHHMLNLEQLNAFIAAVEKGSFSAAARHIGKSQSSVSIGVNNLELDLGVELFDRSTKYPQLTEQGERLYHQAKALMRQATRMESYAKGVIEAVEDQLVIGADPLVPMSVFDSALEKMAEKFPFTRVKLVKLTGNHLNRAIEADEVDVGFNIMSEAVPENLDFIGIARIEWVCICSPDYKFADLEAVDSEMLINERQIVCSSMLQNEYLAKLGRVSQETWEASDLDDMIRLVEQGIGWGIIPLSMYEEKAAIGTLSTFKPVIEKETGLITVDLLWKSTAQLGPAKSFFIDLLKR | not soluble
* MGSDKIHHHHHHMKTLAQNIQEKLKASGLTQKELAERANISQVMVHKLISGKAKESSKLVAIAGVLGCTAEELMYGLEKHVPTSNAEWAGPMETWDSNTPLNDDEVEIPFYMEVELAAGHGIAEASEYHGPKLRFAKSTLRKSSVDPTNAACVRVSGNSMEPVLPSGSTVGVDTSQTDVIDGKMYAINHDGMLRVKTLYKLPGGGLRLRSYNIDEWPDERYEGEAIKQIKIIGKVFWYSVLM | not soluble
* GSGMRFYVKDHRNKAMINLHIQKDNPKIVHAFDMEDLGDKAVYCRCWRSKKFPFCDGAHTKHNEETGDNVGPLIIKKKET | soluble

**Q:** Could you tell me which soluble on expression in E. coli is on file for `MNEEKQQELLISVIITNYNYDQFIDQAIESVLSQTYYNFELIIVDDGSTDNSRDVISSYTDSRIKALVKNNGGQASAFNAGFEQANGEIICFLDSDDWWKPEKLETIIRWHYFINKDYAIFQHVLDVWYEGKTRPYKHILPSGDCFAEMKKVKKLDFFVPTSGLSFPKKILDRIFPIPIKFIIAADSYIMRTACVFNMVYSIPKSLGFYRQHDNTVFLNPDFDLQPFLKEILIPELNQFYQKYRINYQIEISDYNFNERKKNKKQKIFEYLKKVFFLEHHHHHH` ?
**A:** not soluble

**Q:** Note, next up: `MDAFIVDPVQGELYSGLSHTELADIIRLADSVENQLNGGNSFLDVFSTYMGQVISEFMHSNDNRIELLQRRLHSCSFLVNIEEMSYIDEALQCPITLAIPQRGVFLRNAEGSRVCSLYDEMALSRIINDGMHHPLSREPITLSMLVAREQCEFDCSIGHFTVRSDCYSV`
**A:** soluble

**Q:** And `KPGFQLGVTVDYEIGKHWMLMSGLSWLQNRSTMKMMDHMVTYFPKTEIKMNNLILPLKMGYNIRVSDKLSLIPSVGVYASYGFGAGNCSLDVIHQEGDNITTEPAKWKPLDGFSYKAGEPNNSGNLQAFRRWDYGGIVGMKAVIADHYTISFDYRVGIKKIQAQNGLRNSTFQFSVGYRF` ?
**A:** not soluble

###

- assay-details: soluble on expression in E. coli; label from the status in PepcDB or PDB records
measured-quantity: soluble on expression in E. coli

Some sequences with known soluble on expression in E. coli results, for comparison:
• MGILDKVKNLLSQNADKVETVINKAGEFVDEQTQGNYSDAIHKLHDAASNVVGMSDQQS = soluble
• MNTTANPSNIIVGLSGGVDSSVTAALLKQQGYQVRGVFMQNWEDDDNDEYCSIKQDSFDAIAVADIIGIDIDIVNFAAQYKDKVFAYFLQEYSAGRTPNPDVLCNAEIKFKCFLDYAVGQGADTIATGHYARKEVRNGVHYLLKGLDRNKDQSYFLYRLKPFQLERAIFPLGGLEKPEVRRLAAEFKLPTAAKKDSTGICFIGERPFREFLQKYLPTDNGKMVTPEGKTVGEHVGLMFYTLGQRKGLGIGGAGEPWFVAAKDLTKNELIVVQGHDHPLLYTRSLVMNDLSFTLPERPKAGRYTCKTRYRMADAPCELRYLDDETAELVFDEPQWAVTPGQSAVLYDGDICLGGGIIQTTDKPVIITR = not soluble
• MKKIITLFGACALAFSMANADVNLYGPGGPHTALKDIANKYSEKTGVKVNVNFGPQATWFEKAKKDADILFGASDQSALAIASDFGKDFNVSKIKPLYFREAIILTQKGNPLKIKGLKDLANKKVRIVVPEGAGKSNTSGTGVWEDMIGRTQDIKTIQNFRNNIVAFVPNSGSARKLFAQDQADAWITWIDWSKSNPDIGTAVAIEKDLVVYRTFNVIAKEGASKETQDFIAYLSSKEAKEIFKKYGWREH = soluble
• YLDVRQVMYTLVAVFIGSRVIDFVQEGAYAARGALIISKDNDAIASHVMLSMNRGVTVLEGRGGFSKNEQDVLYIVVAKNEIVQLKNIVQAIDPHAFVSVSVVHDVMGEGFTLDENKNPIY = not soluble
• MAHHHHHHMNPHPVEPRDQIAELLVESPLFSFNCAHFIAFKGFRETLHGHNYNVSLRLRGNIQGDGYVIDFSILKEKVRKVCKQLDHHFILPMYSDVLNIQEVNDNFKITCEDNSEYSFPKRDCVQIPIKHSSTEEIGLYILNQLIEEIDLPFLKTRSVNYMEVTVSESPSQKATVHRNI = soluble

**Q:** # get_value(readout='soluble on expression in E. coli', item= `MSLPRRPTSSAREGDGGKRSGHTFAAVEAIGRALPDVEVTTAWGQPALKVHGKMFVCVASHKSAEPNSLVVMMAFADRDALVEDDPATYYLRKHYLNHPCVLVRLTRIRLDALRDLVVGAHRLVNVQMRSKSDIGSQGTSRPLRDRREGHHHHHH` )
**A:** soluble

**Q:** Can you handle `MKNSDLYNGTLRTSFVPGSTLEAGIIFRATIPNGEFYEKEAGLSYYWLYILNGTVSFQRVENGEISNENKKYFPYGTSSAYEAKILLDDGDIYCYLNNRLVFHYTDENPLQGHQYGLKSEGSNLIVTEFATSSLEAPQHNEYLIFGHSYTDFWKTYKQDFHKYQDIYNIGIGGAITSDWCSEGYQKEVIAYQPKYGIYWNGINDINRNIAPKTIGDNVRRMAMEIKAAVPGFHLVLIGVCRCPIDSGRRSDIASTNNYYKQIASDLDYVTYIDTELMYCDSNGNEIANYFTDGLHPTHDAYIMCANAIMNTIK` next?
**A:** soluble

**Q:** What do we get for `MSLDDRSIRAEERSDKLMNLKIKNITCSIKKVPLKRPFITALHKVTEIEGLKIVVELSDGQTGTGTATPNEKVTGDTLQSSLDIVNQVIKPALINQDFKNWNKLLTTLQTCIVHNTAAKAAMDIALYQLKAKENNESLVNLLGSEKGKLTTDYTISIGSDDHMVSEAKSLVKDGFTAIKIKLGNNSVSHDIKTIQKISKAVGPDISLRIDCNQAWNYKDTLKASRIWAQDNLNIDFIEQPVLKDAISDLTLLSENSPYPIMADESVASYQDAINLIKHHACDYINIKLMKTGGLSEAIKINDLAQACGIKTMVGCMIEPVESIAAAAAFAVANKNVKFIDLDSIFMATQDPDLGKYLKIKNNEIILKDEGHHHHHH` ?
**A:** soluble

**Q:** Consider next the sequence `MDRNEVRHAWDSVSETYAERRDPTGSDAALLEDLLERLPEAPTVLDVGCGDGARTLANLPPRSVGLDFSRAGLDLAAETVPDSRLVQGDMGSLPVTTDSVDAITAYHAVFHVQRDQHPEVYREFARVLRPGGTVLMTLPSGQFETVRRGWMGGSMFFSAPGRRATLDQLADAGFTETETVTATDPLGSDSEFVFATLADALEHHHHHH` in the same way.
**A:** soluble

**Q:** Now the sequence `MPIHHAIVHLIEKKPDGTPAVLHARDAELGDSQAIENLLADLNESYNAKNKAWGFFQGESGAYPFSGWLGEYLEGDRDFVGFSREAVEHLQKLMEESNLSTGGHILFAHYQQGMTDYLAIALLHHSEGVAVNESLEVTPSRHLDLGQLHLAARINISEWRNNKQSKQYISFIKGKGGKKVSDYFRDFIGCQEGVDSPSETRTLLKAFSDFVESEDMAEEQAREKTETLVDYATSQARIGEPMTLDALSELMDDQQPRAFYDYIRNKDYGLSPEIPADKRTLNQFRRFTGRAEGLSISFEAHLLGSKVEYDEERDMLIIRQLPTQLKDQLKRRKDLEHHHHHH`
**A:** not soluble

**Q:** Cool, now `MQKLKQQVFDANMDLPRYGLVTFTWGNVSAIDRERGLVVIKPSGVAYETMKVDDMVVVDMDGKVVEGRYRPSSDTATHLALYQRYPSLGGVVHTHSTHATAWAQAGMAIPALGTTHADYFFGDIPCTRALSEEEVQGEYELNTGKVIIETLGEVEPLHTPGIVVYQHGPFAWGKDAHDAVHNAVVMEEVARMAWIARGINPALNPIDDYLMNKHFMRKHGPNAYYGQK`
**A:** not soluble

**Q:** Field entry: `MTYGVISWWDYGHWIEAVAHRMPIANPFQAGIGNKYNNVPGASSFFTAENESYAEFVAEKLNVKYVVSDIEMETGKYYAMAVWAEGDLPLAEKYYGGYFYYSPTGTFGYANSQWDIPLNSIIIPLRIPSELYYSTMEAKLHLFDGSGLSHYRMIYESDYPAEWKSYSSQVNLNNESQVLQTALYEAVMRARYGVSPTLEHHHHHH`
**A:** not soluble

**Q:** Consider next the sequence `TILVAIANDSVSPAVIDTAVRLADGLDEELYVVHLVDENTADGTAMQLRDEMRDRFRDATVVATVAIEHVGRSAMRSGTRIGNELLELAADVDVQHIVMGHEPKGLAGRLREGDAAVAVIDAADVPVTIVPEG` in the same way.
**A:** not soluble
